# Organism: Homo sapiens
# measurement-protocol: Inhibition of human recombinant G5 sPLA2 at 0.091 mole fraction using arachidonyl-1-14C PAPC and PAPC by HPLC-MS analysis based radioactivity-based group specific mixed micelle assay relative to control
The following compounds are listed with their measured inhibition values.
parameter-measured: inhibition (%)

| compound | operator | value |
| --- | --- | --- |
| CCCCCCC1OC(=O)C1CCCc1ccccc1 (stereo unspecified) | = | 47 |
| COc1ccc(CCSCC(=O)c2noc(C(C)(C)C)n2)cc1 | = | 38 |
| CCC[C@H]1OC(=O)[C@@H]1CCCCc1ccc2ccccc2c1 (racemic) | = | 29 |
| CC1OC(=O)C1CCCc1ccc2ccccc2c1 (stereo unspecified) | = | 26 |
| CCC[C@@H]1OC(=O)[C@@H]1CCCCc1ccccc1 (racemic) | = | 34 |
| O=C(CCCCc1ccccc1)C(F)(F)C(F)(F)F | = | 28 |
| CCC[C@@H]1OC(=O)[C@@H]1CCCc1ccc2ccccc2c1 (racemic) | = | 27 |
| CCCCCCC1OC(=O)C1CCCc1ccc2ccccc2c1 (stereo unspecified) | = | 40 |
| CCC[C@H]1OC(=O)[C@@H]1CCCc1ccc2ccccc2c1 (racemic) | = | 30 |
| CCC[C@H]1OC(=O)[C@@H]1CCCCc1ccccc1 (racemic) | = | 25 |
| CCC[C@@H]1OC(=O)[C@@H]1CCCc1ccccc1 (racemic) | < | 25 |
